Biological target: Kappa-type opioid receptor (Homo sapiens)
Assay: KOR agonists, beta-arrestin recruitment, primary screen, cell-based, luminescence, uHTS (AID 1777)
Details: at 10 µM, stronger effect = higher value
Out of some 280,000 compounds screened, about 50 (0.02%) were called active. Only a selection was taken, and actives are over-represented in it overall. Results with a measured potency or affinity are listed apart.
measurement type: activation

compound	system name	activation
C(=C\c1ccccc1)/CNCC1CCCO1 (stereo unspecified)	Kappa-type opioid receptor (Homo sapiens)	2% (inactive)
O=C(NCC1CCCO1)C1CC(=O)N(c2cccc(Cl)c2)C1 (stereo unspecified)	Kappa-type opioid receptor (Homo sapiens)	5.7% (inactive)
CCCN(Cc1cc2ccc(C)cc2[nH]c1=O)C(=O)c1ccccn1	Kappa-type opioid receptor (Homo sapiens)	46.4% (inactive)
CCCOC(=O)NC1C(NC(=O)OCCC)N(C)C(=O)N1C (stereo unspecified)	Kappa-type opioid receptor (Homo sapiens)	-2.1% (inactive)
COc1ccc(OC)c(NC(=O)c2ccc(CSc3ncccn3)cc2)c1	Kappa-type opioid receptor (Homo sapiens)	-7.7% (inactive)
Cc1ccc(C(=O)NC(=S)Nc2cccc(NC(=O)c3ccccc3Cl)c2)cc1[N+](=O)[O-]	Kappa-type opioid receptor (Homo sapiens)	1.9% (inactive)
COc1ccc(S(=O)(=O)N2CCCC(C(=O)NC3CCCC3)C2)cc1OC (stereo unspecified)	Kappa-type opioid receptor (Homo sapiens)	-2.8% (inactive)
CC(=O)Nc1ccc(N/C=C/C(=O)c2ccccc2)cc1	Kappa-type opioid receptor (Homo sapiens)	-0.7% (inactive)

Q) Give the reported value of activation for this record: O=c1[nH]cc(S(=O)(=O)NCc2ccccc2)c(=O)[nH]1
A) -1.3% (inactive)

Q) Give the reported value of activation for this record: Cc1cc(C)cc(C(=O)NCC(=O)OCC(=O)N2CCN(S(=O)(=O)c3ccc4ccccc4c3)CC2)c1
A) -0.4% (inactive)

Q) Give the reported value of activation for this record: O=c1cc(N2CCN(c3ccccc3)CC2)[nH]c(=O)n1Cc1ccc(F)cc1
A) -5.2% (inactive)

Every entry's value here was drawn from PubChem BioAssay AID1777.
